EC50 values by entry
study_target: ΔF508-CFTR (Homo sapiens, UniProt P13569, DEL508-508)
Sequence (P13569 with tags, fused parts or gaps DEL508-508): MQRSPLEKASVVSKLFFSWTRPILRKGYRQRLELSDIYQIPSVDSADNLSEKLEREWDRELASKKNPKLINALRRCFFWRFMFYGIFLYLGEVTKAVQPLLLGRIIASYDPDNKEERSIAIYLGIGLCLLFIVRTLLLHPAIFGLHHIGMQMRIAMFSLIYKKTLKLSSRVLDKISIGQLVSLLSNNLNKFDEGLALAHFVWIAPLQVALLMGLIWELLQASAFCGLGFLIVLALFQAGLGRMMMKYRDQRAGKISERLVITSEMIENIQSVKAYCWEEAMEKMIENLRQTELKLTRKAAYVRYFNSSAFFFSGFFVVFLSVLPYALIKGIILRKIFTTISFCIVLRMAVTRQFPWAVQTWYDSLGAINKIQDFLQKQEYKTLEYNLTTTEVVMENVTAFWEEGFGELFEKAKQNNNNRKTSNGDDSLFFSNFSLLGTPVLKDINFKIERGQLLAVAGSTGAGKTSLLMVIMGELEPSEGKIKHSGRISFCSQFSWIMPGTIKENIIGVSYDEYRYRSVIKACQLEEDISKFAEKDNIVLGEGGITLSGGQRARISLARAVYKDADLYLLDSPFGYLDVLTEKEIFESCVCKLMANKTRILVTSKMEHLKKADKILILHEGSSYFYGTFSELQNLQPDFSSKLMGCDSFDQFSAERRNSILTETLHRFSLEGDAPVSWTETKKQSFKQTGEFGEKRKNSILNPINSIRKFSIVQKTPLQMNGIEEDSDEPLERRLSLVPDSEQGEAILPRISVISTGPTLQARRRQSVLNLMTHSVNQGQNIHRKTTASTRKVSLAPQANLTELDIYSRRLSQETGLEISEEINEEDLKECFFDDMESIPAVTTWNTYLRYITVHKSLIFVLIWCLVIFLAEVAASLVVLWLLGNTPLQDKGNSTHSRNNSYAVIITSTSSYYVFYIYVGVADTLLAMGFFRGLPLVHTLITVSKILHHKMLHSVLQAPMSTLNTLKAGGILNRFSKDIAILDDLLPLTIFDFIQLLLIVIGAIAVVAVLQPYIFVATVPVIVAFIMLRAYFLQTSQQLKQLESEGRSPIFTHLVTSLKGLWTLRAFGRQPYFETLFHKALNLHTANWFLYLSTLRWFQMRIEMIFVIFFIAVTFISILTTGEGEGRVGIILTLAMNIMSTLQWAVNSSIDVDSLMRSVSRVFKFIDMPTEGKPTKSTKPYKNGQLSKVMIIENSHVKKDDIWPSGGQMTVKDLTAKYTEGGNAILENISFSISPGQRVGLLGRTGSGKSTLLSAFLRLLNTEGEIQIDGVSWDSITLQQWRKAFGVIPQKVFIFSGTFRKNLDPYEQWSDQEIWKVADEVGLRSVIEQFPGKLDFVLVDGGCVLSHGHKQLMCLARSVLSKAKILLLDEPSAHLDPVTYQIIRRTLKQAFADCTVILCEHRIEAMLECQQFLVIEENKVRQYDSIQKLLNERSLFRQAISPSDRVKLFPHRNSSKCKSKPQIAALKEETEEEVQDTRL
run_description: Membrane potential optical assay (FRET/VIPR), identification of correction compounds

| molecule | EC50 |
| --- | --- |
| COc1ccc(S(=O)(=O)N2CCN(C(C)c3nc(N4CCN(C)CC4)c4ccccc4n3)CC2)cc1 (centres unmarked) | 25 to 60 µM |
| CC(c1nc2ccc(Cl)cc2c(=O)n1C)N1CCN(C(=O)c2ccccc2Cl)CC1 (centres unmarked) | 25 to 60 µM |
| CC(c1nc2cc(Cl)ccc2c(=O)n1C)N1CCN(S(=O)(=O)c2ccc(C(F)(F)F)cc2)CC1 (centres unmarked) | < 10 µM |
| CCN(CC)c1nc(C(C)N2CCN(S(=O)(=O)c3ccc(Br)cc3)CC2)nc2ccccc12 (centres unmarked) | < 10 µM |
| CCOC(=O)c1cnc(C(C)N2CCN(S(=O)(=O)c3ccc(OC)cc3)CC2)[nH]c1=O (centres unmarked) | 25 to 60 µM |
| CC(c1nc2ccccc2c(=O)n1C)N1CCC(N)CC1 (centres unmarked) | 25 to 60 µM |
| CC(c1nc2ccc(Cl)cc2c(=O)n1C)N1CCN(S(=O)(=O)c2ccc(Br)cc2)CC1 (centres unmarked) | < 10 µM |
| COc1ccc(S(=O)(=O)N2CCN(C(C)c3nc(N4CCCCC4C)c4ccccc4n3)CC2)cc1 (centres unmarked) | < 10 µM |
| CC(c1nc2ccccc2c(=O)n1C)N1CC2CC1CN2S(=O)(=O)c1ccc(Cl)cc1 (centres unmarked) | 25 to 60 µM |
| COc1ccc(S(=O)(=O)N2CCN(Cc3nc4ccccc4c(=O)[nH]3)CC2)cc1 | 25 to 60 µM |
| CC(NCCCNS(=O)(=O)c1ccc(Br)cc1)c1nc2ccccc2c(=O)n1C (centres unmarked) | 25 to 60 µM |
| COc1ccc(S(=O)(=O)N2CCN(C(C)c3nc(N4CC5CCC4C5)c4ccccc4n3)CC2)cc1 (centres unmarked) | < 10 µM |
| COc1ccc(S(=O)(=O)N2CCN(C(C)c3nc(OC4CCCCC4)c4cc(F)ccc4n3)CC2)cc1 (centres unmarked) | < 10 µM |
| COc1ccc(S(=O)(=O)N2CCN(C(C)c3nc4ccc(Br)cc4c(=O)n3C)CC2)cc1 (centres unmarked) | < 10 µM |
| COc1ccc(S(=O)(=O)N2CCN(C(C)c3nc4ccccc4c(=O)[nH]3)CC2)cc1 (centres unmarked) | 10 to 25 µM |
| COC(=O)c1ccccc1S(=O)(=O)N1CCN(C(C)c2nc3ccccc3c(=O)n2C)CC1 (centres unmarked) | 25 to 60 µM |
| Cc1ccc(S(=O)(=O)N2CCN(C(C)c3nc4ccc(C#N)cc4c(=O)n3C)CC2)cc1 (centres unmarked) | 10 to 25 µM |
| COc1ccc(C(=O)N2CCN(C(C)c3nc4ccccc4c(=O)n3C)CC2)cc1OC (centres unmarked) | 10 to 25 µM |
| Cc1cccc(S(=O)(=O)N2CCN(C(C)c3nc4cc(Cl)ccc4c(=O)n3C)CC2)c1 (centres unmarked) | < 10 µM |
| CC(c1nc2ccc(Cl)cc2c(=O)n1C)N1CCN(S(=O)(=O)c2cccc(Cl)c2)CC1 (centres unmarked) | 10 to 25 µM |
| CCC(c1nc2ccccc2c(=O)n1C)N1CCN(S(=O)(=O)c2ccc(OC)cc2)CC1 (centres unmarked) | 10 to 25 µM |
| CC(=O)Nc1nc(C)c(S(=O)(=O)N2CCN(C(C)c3nc4ccccc4c(=O)n3C)CC2)s1 (centres unmarked) | 25 to 60 µM |
| Cc1ccccc1S(=O)(=O)N1CCN(C(C)c2nc3cc(Cl)ccc3c(=O)n2C)CC1 (centres unmarked) | 10 to 25 µM |
| CC(c1nc2ccccc2c(=O)n1C)N1CCN(S(=O)(=O)c2ccc(S(C)(=O)=O)cc2)CC1 (centres unmarked) | 25 to 60 µM |
| Cc1ccc(C(=O)N2CCN(C(C)c3nc4cc(Cl)ccc4c(=O)n3C)CC2)cc1 (centres unmarked) | 10 to 25 µM |
| CC(c1nc2ccccc2c(=O)n1C)N1CCN(S(=O)(=O)c2ccc(Cl)s2)CC1 (centres unmarked) | 10 to 25 µM |
| CC(NC[C@@H]1CCCCN1)c1nc2ccccc2c(=O)n1C (some centres unmarked) | 25 to 60 µM |
| CC(c1ncc2ccccc2n1)N1CCN(S(=O)(=O)c2ccc(Br)cc2)CC1 (centres unmarked) | 25 to 60 µM |
| CCn1c(C(C)N2CCN(S(=O)(=O)c3ccc(C)cc3)CC2)nc2ccc(Cl)cc2c1=O (centres unmarked) | 25 to 60 µM |
| CC(c1nc(OC2CCCC2)c2ccccc2n1)N1CCN(S(=O)(=O)c2ccc(Cl)cc2)CC1 (centres unmarked) | < 10 µM |
| CC(c1nc2ccccc2c(=O)[nH]1)N1CCN(S(=O)(=O)c2ccc(Cl)cc2)CC1 (centres unmarked) | 10 to 25 µM |
| COc1ccc(S(=O)(=O)N2CCN(C(=O)c3nc(N4CCCCC4)c4ccccc4n3)CC2)cc1 | 25 to 60 µM |

Cited source: patent US8642609B2
